meta.source: PubChem BioAssay (NCI)

# System: SK-MEL-5 melanoma
# Experiment description: NCI-60 one-dose screen, 48 h (100 = growth as untreated, 0 = no growth, -100 = all killed)
# Experimental parameters: 10 µM unless noted
About 83,000 compounds went through this panel and 20% of them were active in at least one assay; those are over-represented in the sample as a whole.
growth values for the molecules below.
Experimental endpoint: growth (%)

CNC(=O)c1ccccc1Oc1nc(Nc2cc(OC)c(OC)c(OC)c2)ncc1Br; 80
COC1=CC(c2ccc[nH]2)=N/C1=C\c1[nH]c(C)c(C(=O)OC(C)C)c1C; -99.5
COc1ccc(C2CC(c3ccc(Nc4nc(Nc5ccccc5)nc(Nc5ccccc5)n4)cc3)=NN2C(C)=O)cc1 (stereo not given); 83.5
CC1CCN(CCOc2ccc(CNc3ccc4nc(CCC5CCCCC5)[nH]c4c3)cc2)CC1; -99
O=C1NC2(Nc3ccccc31)C(=O)Nc1c(Cl)cc(Cl)cc12 (stereo not given); 99.9
CCOC(=O)c1ccc2c(c1)nc(-c1ccccc1)n2C1CCCCC1; 93.8
O=C1Nc2ccc(C(=O)O)cc2/C1=N/c1nnc(Sc2ccccc2)s1; 104
CCn1cc(C(=O)O)c(=O)c2cc(F)c(N3CCN(CC(=O)Nc4ccc(S(=O)(=O)Nc5nccc(C)n5)cc4)C(C)C3)c(F)c21 (stereo not given); -93.3
O=C1/C(=C/c2ccc([N+](=O)[O-])cc2)COc2ccc(O)cc21; 94
COc1ccc(/C=C/C(=O)c2cc3c(N)c(C(=O)Nc4cccc5ccccc45)sc3nc2C)cc1; 68.9
N#CC1=C(c2ccccc2)Nc2c(c(-c3ccc(Cl)cc3)nn2-c2ccccc2)C12C(=O)Nc1ccc(Cl)cc12 (stereo not given); 87.5
COc1cc(-c2csc(NC(=O)c3ccc(N4CCOCC4)c(C(F)(F)F)c3)n2)cc(OC)c1OC; -6.45
O=C(CSc1nc2ccc([N+](=O)[O-])cc2[nH]1)Nc1ccc([N+](=O)[O-])cc1; -12.7
O=C1/C(=C/c2cn(-c3ccccc3)nc2-c2ccccc2)SC(=S)N1C1CCCCC1; 100
O=C1c2ccccc2-c2c1c1c(=O)[nH]c3ccccc3c1n2Cc1ccccc1; 60.6
Cc1c[n+](Cc2ccc3ccccc3c2)cn1Cc1ccc2ccccc2c1; -71.2
COc1ccc(C(=O)/C=C/c2c(C(F)(F)F)nc3ccccn23)cc1OC; 4.43
COc1cc2cc(NCc3cccc(Cl)c3)nc(C)c2cc1OC; 43.4
COc1ccc(NC2=C(I)C(=O)c3ncccc3C2=O)cc1; -94.6
CCOC(=O)c1ccc(NC(=O)c2nc(-c3cc(OC)c(OC)c(OC)c3)n(-c3ccc(Cl)cc3)n2)cc1; 63.6

* * *

# Tested on: UO-31 renal
# Experiment description: NCI-60 one-dose screen, 48 h
# Experimental parameters: 10 µM unless noted
Compounds without any hit were thinned out: in the full panel of roughly 83,000, 20% have a hit. The source made the active and inactive calls. The calls were made as follows: active = growth percent below 10; inactive = the rest.
Possible outcomes: 1.0 for active, 0.0 for inactive

C=C1CC[C@@H]2[C@](C)(COC(C)=O)[C@H](OC(C)=O)CC[C@@]2(C)[C@@H]1CC(Nc1ccc(S(=O)(=O)Nc2ncccn2)cc1)C1=CCOC1=O (stereo not given in full); 1.0
COc1ccc(NC(=O)c2sc3nc(C)c(C(=O)/C=C/c4ccccc4)cc3c2N)cc1; 0.0
CN(C)Cc1ccc(O)c(C(=O)O)c1; 0.0
COc1ccc(C(=O)N2c3ccccc3Sc3ccccc32)c(OC)c1; 0.0
Nc1nc2ccccc2c2c(=O)c3cccc(Cl)c3sc12; 0.0
Cc1cn(-c2cc(NC(=O)c3cncc(C#Cc4cnc(N)c5ncccc45)c3)cc(C(F)(F)F)c2)cn1; 0.0
N#CSc1c[nH]c2cccc(/C=C/C(=O)/C=C(/C=C/c3cccc4[nH]cc(SC#N)c34)OB(F)F)c12; 1.0
COc1ccc(/C=C/C(=O)c2ccc(Nc3ccnc4cc(Cl)ccc34)cc2)cc1; 0.0
COc1cc2ncnc(Nc3ccc(F)c(Cl)c3)c2cc1OCC(=O)N1CCN(c2ccccc2)CC1; 0.0
CCSC(SCC)c1ccc(Cl)cc1; 0.0
Nc1nc2ccc(-c3nc4ccc5[nH]ncc5c4c4c3CCCC4)cc2s1; 0.0
Cn1ccc(=O)c(C(=O)Nc2nsc3ccc([N+](=O)[O-])cc23)c1; 0.0
CCCNc1nc2ccccc2c2c1S(=O)(=O)c1ccc(Cl)cc1C2=O; 0.0
Nc1cnc(C(=O)NNc2nc3cc(F)ccc3n3cccc23)cn1; 1.0
COc1cc2nc3cc([N+](=O)[O-])ccc3c(NCCNCC(C)O)c2cc1OC (stereo not given); 0.0
Cc1cccc(/C=C/c2c(C(=O)/C=C/c3ccccc3)c(C)nc3ccccc23)c1; 1.0
COc1ccc(C(=O)Nc2cccc(-c3cc(=O)c4c(OC)c(OC)c(OC)cc4o3)c2)cc1; 0.0
O=C(Nc1ccc(Oc2cccc(Cl)c2)c(Cl)c1)c1cnccn1; 0.0
N#C/C(=C\c1c(-c2ccccc2)[nH]c2ccccc12)C(N)=O; 0.0
COc1cc(OCc2cccc(Br)c2C)cc(OC)c1C=O; 0.0
O=C(Nc1ccc(OS(=O)(=O)c2ccc(F)cc2)cc1)C1CCCCCC1; 0.0
CS(=O)(=O)c1ccc(-c2cnn3ccc(-c4cccc(S(=O)(=O)C5CC5)c4)nc23)cc1; 0.0
Cc1cc(C)c2c(c1)N(C)c1ncnc(-n3cnc4cc(C)ccc43)c1CC2C (stereo not given); 0.0
N#Cc1c(-c2ccc(Cl)cc2)c(C#N)c2c(C#N)c(N)nn2c1N; 0.0
O=C(CSC(=S)n1cnnc1)NC(=O)c1ccccc1; 0.0
COc1ccc(F)cc1/C=C/C(=O)/C=C(/C=C/c1cc(F)ccc1OC)OB(F)F; 1.0
CCOC(=O)C1=C(c2ccccc2)N=C2SC=C(c3ccc(Cl)cc3)N2C1c1ccc(Cl)cc1 (stereo not given); 0.0
Oc1c(I)cc(I)cc1CNCc1ccccn1; 1.0
COc1ccc2[nH]c(C(=O)N3CCN(C(=O)OCc4ccc5c(Cl)cc(Cl)c(O)c5n4)CC3)cc2c1; 1.0
N#Cc1ccc(O)c(C2=NCC(c3cccc(Oc4ccccc4)c3)O2)c1 (stereo not given); 1.0
C[PH+](c1nc2ccccc2nc1[PH+](C)C(C)(C)C)C(C)(C)C.C[PH+](c1nc2ccccc2nc1[PH+](C)C(C)(C)C)C(C)(C)C.[Au+].[Cl-] (stereo not given); 1.0
COc1cc(NS(=O)(=O)c2ccc(-c3cnc(C4CC4)o3)cc2)ccc1F; 0.0
O=S(=O)(Nc1cc(F)cc(Cl)c1)c1ccc(-c2cnc(C3CC3)o2)cc1; 0.0
COc1ccccc1CNc1c2ccccc2nc2ccccc12; 0.0
CNC(=O)c1ccccc1Oc1nc(Nc2cc(OC)c(OC)c(OC)c2)ncc1Br; 0.0
C#CCOC(=O)/C=C/c1cn(-c2ccccc2)nc1-c1ccc(OC)cc1; 0.0
CCc1ncnc2c1ccn2C(C)c1ccc(OC)c(F)c1 (stereo not given); 0.0
COc1ccc(-c2cc(-c3ccc(Cl)cc3)c(C#N)c(=O)n2Cc2ccc(C(=O)Nc3ccccc3N)cc2)cc1; 0.0
N#Cc1c(-c2ccccc2)cc(-c2ccccc2)n(CCCC(=O)Nc2ccccc2N)c1=O; 0.0
Cn1c(I)c(C#CCO[Si](C)(C)C(C)(C)C)c(=O)[nH]c1=O; 0.0

* * *

growth values for the compounds below.
# System: RXF 393 renal
# Experiment description: NCI-60 one-dose screen, 48 h (100 = growth as untreated, 0 = no growth, -100 = all killed)
# Experimental parameters: 10 µM unless noted
About 83,000 compounds went through this panel and 20% of them were active in at least one assay; those are over-represented in the sample as a whole.
Experimental endpoint: growth (%)

COc1cccc(/C=C2\COc3ccc(O)c(O)c3C2=O)c1; -18.7
CCOC(=O)Cc1cnc(N/N=C(\C)c2cc3ccccc3o2)s1; 107
COc1ccc(C(=O)Nc2cccc(-c3cc(=O)c4c(OC)c(OC)c(OC)cc4o3)c2)cc1; 53.6
C=CC[Se]C(=O)Cc1c(C)n(C(=O)c2ccc(Cl)cc2)c2ccc(OC)cc12; -57.5
COCCOc1cc2ncnc(N3CCN(c4ncc(S(=O)(=O)N5CCCCC5)cn4)CC3)c2cc1OCCOC; 110
COC(=O)[C@]12CCC(C)(C)C[C@H]1[C@H]1/C(=N/OCCc3nn[nH]n3)C[C@@H]3[C@@]4(C)CC[C@H](OC(C)=O)C(C)(C)[C@@H]4CC[C@@]3(C)[C@]1(C)CC2; 70.1
Cc1ccc2c(Cn3cc(CSc4nc5ccccc5o4)nn3)cc(=O)oc2c1; 98.6
c1ccc(Cn2cc3c(c2)-c2oncc2CC3)cc1; 0.371
COc1ccc(C(O)c2cc3c(N)c(C(=O)Nc4cccc(Br)c4)sc3nc2C)cc1 (stereo unspecified); 28.2
Cc1ccc2c(n1)C(=O)C(Br)=C(C1CCCC1)C2=O; 89.3
N=C(N)c1ccc(-c2ccc(-c3ccc(Cl)c(Cl)c3)s2)nc1; 79.5
O=C(Nc1cccc2ccccc12)NC1CC1; 107
CCSC(SCC)c1ccc(Cl)cc1; 114
O=C1c2c(c3c4ccccc4[nH]c3c3ccc4ccccc4c23)C(=O)N1CCN1CCNCC1; 91.6
CCOC(=O)c1ccc2c(c1)nc(-c1ccccc1)n2C1CCCCC1; 112
Cc1sc2nc(NCCc3c[nH]c4ccc(Cl)cc34)[nH]c(=O)c2c1C; 7.63
COc1ccccc1CNc1c2ccccc2nc2ccccc12; 30.6
Nc1[nH]n2cc(-c3ccccc3)nc2c1N=Nc1ccc(S(N)(=O)=O)cc1; 6.61
CCCC/C=C/[C@@H]1C[C@H]1CCO; 108
CCCc1c(OC(=O)c2ccccc2)nc2[nH]c(=O)sc2c1C; 101
Cc1cc(S(=O)(=O)/N=C(\N)n2nc(C)c(C)c2C)c(SCc2ccccc2)cc1Cl; 72.9
